Tested on: NCI-H460
TEST METHOD NOTES: NCI tumour cell line growth inhibition, 48 h
Activity calls are given as the source filed them. No stated cut-off is given here; in the data, active = GI50 up to about 1.1 µM and inactive = higher.
Pick one and only one: 1 (active), -1 (inactive)

Solved entries:
CCCNCCCCC(NC(C)=O)C(=O)NCc1ccccc1 (stereo unspecified)    -1
CCOC(=O)C12CCCC1(O)N(NC(=O)OC(C)(C)C)C(C)=C2C(=O)OC (stereo unspecified)    -1
O=c1ccc2ccc(CBr)cc2o1    -1

Q. Please indicate how the test categorized `COc1cc(/C=C/c2nc(NC(=S)Nc3ccccc3)nnc2C)cc(OC)c1OC` .
A. -1

Q. Please indicate how the test categorized O=C(CC1(O)C(=O)Nc2c(Cl)ccc(Cl)c21)c1ccc(Cl)cc1 (stereo unspecified) .
A. -1

Q. Please indicate how the test categorized `CN1CCN(CC(=O)N2CCCn3c2nc2ccccc2c3=O)CC1` .
A. -1

Q. Please indicate how the test categorized `Fc1ccc(C(OCCN2CC3CCC(C2)N3CCCc2ccccc2)c2ccc(F)cc2)cc1` .
A. -1

Q. Please indicate how the test categorized Clc1nc2c(C#Cc3ccccc3)ncnc2n1C1CCCCO1 (stereo unspecified) .
A. -1

Q. Please indicate how the test categorized `CN(C)CCNc1nc2ccccc2c2c1C(=O)c1ccccc1-2` .
A. 1

Q. Please indicate how the test categorized `COc1ccc(C(=O)/C=C/c2ccc(O)c(O)c2)c(OC)c1` .
A. -1

Q. Please indicate how the test categorized Fc1ccc(C2SCc3nc4ccccc4n32)cc1Cl (stereo unspecified) .
A. -1
